Where do the numbers come from? From paper PMC2678945.

# tested on: mTRPA1 (Mus musculus, UniProt Q8BLA8)
# Sequence (Q8BLA8 whole entry): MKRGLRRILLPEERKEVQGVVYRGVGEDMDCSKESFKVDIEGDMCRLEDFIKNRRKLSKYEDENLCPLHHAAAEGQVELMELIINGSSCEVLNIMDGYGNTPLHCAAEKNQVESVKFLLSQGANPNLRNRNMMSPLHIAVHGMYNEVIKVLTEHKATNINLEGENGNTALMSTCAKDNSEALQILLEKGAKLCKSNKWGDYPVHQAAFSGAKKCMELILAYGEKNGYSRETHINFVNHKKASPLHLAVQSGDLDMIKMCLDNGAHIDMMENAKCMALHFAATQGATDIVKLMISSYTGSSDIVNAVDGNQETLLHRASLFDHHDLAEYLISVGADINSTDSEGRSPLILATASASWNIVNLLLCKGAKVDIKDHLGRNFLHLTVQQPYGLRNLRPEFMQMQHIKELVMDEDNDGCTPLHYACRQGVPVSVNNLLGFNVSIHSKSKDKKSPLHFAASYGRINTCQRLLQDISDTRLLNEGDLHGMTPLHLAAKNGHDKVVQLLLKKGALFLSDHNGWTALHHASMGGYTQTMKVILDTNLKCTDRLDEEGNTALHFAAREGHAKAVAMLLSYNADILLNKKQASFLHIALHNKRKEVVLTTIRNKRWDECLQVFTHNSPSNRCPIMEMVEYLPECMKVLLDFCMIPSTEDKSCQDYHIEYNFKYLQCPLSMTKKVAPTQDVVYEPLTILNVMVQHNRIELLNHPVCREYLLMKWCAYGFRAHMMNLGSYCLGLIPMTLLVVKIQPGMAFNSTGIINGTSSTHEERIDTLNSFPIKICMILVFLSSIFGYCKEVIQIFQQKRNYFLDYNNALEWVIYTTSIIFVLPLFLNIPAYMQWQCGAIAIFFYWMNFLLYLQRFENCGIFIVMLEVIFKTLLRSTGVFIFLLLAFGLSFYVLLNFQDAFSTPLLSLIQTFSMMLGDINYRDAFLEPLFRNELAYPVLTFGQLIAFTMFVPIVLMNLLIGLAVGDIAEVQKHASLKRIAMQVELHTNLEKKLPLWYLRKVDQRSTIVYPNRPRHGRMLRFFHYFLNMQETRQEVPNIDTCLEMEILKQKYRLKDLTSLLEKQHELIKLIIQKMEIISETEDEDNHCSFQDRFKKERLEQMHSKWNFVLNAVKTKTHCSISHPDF
# applied conditions: read-out: IC50, inhibition of MO-induced mTRPA1 activity

- given smiles: "CC(=NO)/C(C)=C\\c1ccc(Cl)cc1"
  IC50 (nM): 690

----------
# tested on: hTRPA1-mTM5-6 (Homo sapiens, UniProt O75762, A939G/E920D/H933Y/I890V/I905L/I946M/L867F/L894F/L927F/P897A/S900T/S921A/S937T/S943A/V875G/V942I/Y926L)
# Sequence (O75762 1-1119 with the stated changes): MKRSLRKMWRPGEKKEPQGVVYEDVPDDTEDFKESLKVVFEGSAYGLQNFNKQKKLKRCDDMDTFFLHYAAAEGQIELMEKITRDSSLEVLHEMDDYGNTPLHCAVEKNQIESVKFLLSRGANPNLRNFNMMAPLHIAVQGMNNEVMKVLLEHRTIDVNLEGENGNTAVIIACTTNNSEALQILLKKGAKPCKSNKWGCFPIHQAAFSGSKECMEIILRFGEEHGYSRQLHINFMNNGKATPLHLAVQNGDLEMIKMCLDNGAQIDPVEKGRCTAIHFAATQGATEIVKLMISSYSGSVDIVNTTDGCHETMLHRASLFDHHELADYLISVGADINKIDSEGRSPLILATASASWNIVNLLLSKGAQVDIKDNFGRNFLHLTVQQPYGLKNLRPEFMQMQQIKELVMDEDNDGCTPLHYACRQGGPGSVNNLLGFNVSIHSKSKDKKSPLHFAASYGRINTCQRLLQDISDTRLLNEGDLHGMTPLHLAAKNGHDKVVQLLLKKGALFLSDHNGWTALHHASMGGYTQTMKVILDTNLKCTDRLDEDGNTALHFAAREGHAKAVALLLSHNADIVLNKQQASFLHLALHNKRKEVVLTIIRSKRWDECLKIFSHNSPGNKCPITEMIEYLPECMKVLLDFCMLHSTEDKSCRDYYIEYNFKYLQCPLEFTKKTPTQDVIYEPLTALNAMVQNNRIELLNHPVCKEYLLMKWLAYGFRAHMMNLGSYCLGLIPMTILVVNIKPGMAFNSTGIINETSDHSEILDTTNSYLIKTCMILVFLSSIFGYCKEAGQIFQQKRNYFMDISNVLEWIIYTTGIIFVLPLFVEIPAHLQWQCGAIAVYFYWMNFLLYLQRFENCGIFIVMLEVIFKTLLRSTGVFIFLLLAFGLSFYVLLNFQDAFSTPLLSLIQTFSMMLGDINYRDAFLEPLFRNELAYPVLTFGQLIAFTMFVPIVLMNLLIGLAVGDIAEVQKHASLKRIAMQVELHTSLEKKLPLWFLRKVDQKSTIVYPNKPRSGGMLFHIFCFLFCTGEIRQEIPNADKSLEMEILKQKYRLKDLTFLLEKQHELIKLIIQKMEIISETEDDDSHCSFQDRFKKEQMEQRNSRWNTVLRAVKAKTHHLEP
# assay protocol: FLIPR calcium assay, chimera hTRPA1-mTM5-6
pIC50: −log10 of the molar value.
quantity name: pIC50

- compound: "CC(C)[C@@H]1CC[C@@H](C)C[C@H]1O [Menthol, (-)-Menthol]"
  recorded number: 4.15

----------
# tested on: mTRPA1-hTM5-6 (Mus musculus, UniProt Q8BLA8, A900P/A924S/A946S/D923E/F870L/F897L/F930L/G878V/G942A/I945V/L908I/L929Y/M949I/T903S/T940S/V893I/Y936H)
# Sequence (Q8BLA8 1-1125 with the stated changes): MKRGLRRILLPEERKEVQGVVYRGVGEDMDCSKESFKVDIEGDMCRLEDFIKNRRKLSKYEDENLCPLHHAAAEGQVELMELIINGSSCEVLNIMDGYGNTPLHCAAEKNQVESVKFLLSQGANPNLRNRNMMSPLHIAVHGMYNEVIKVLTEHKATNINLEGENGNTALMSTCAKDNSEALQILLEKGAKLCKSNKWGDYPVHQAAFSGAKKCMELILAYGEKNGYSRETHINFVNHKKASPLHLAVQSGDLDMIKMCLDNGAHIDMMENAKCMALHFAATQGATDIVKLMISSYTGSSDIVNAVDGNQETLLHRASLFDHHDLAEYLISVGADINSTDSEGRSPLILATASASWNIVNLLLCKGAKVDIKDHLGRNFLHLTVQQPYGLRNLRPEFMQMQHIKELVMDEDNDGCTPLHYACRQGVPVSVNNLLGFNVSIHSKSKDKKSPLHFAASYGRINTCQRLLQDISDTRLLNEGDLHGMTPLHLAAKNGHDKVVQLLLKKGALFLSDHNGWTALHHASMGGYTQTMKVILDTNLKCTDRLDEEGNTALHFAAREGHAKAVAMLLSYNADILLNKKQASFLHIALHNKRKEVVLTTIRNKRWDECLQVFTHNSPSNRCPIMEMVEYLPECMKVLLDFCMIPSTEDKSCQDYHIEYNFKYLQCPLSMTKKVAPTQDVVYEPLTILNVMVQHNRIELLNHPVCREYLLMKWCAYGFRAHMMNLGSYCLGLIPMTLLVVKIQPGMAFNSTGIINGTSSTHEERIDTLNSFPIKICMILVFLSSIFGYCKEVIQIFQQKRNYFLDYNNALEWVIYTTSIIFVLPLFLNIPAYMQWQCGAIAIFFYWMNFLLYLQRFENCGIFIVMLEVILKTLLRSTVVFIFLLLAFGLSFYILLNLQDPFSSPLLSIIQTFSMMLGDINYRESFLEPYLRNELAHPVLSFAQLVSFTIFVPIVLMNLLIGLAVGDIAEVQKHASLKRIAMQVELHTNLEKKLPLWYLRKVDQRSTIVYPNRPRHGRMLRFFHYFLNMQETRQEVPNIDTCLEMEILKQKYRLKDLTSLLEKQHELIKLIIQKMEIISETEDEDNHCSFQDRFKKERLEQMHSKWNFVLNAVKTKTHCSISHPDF
# assay protocol: FLIPR calcium assay, chimera mTRPA1-hTM5-6
pEC50: −log10 of the molar value.

- molecule: "CC(C)[C@@H]1CC[C@@H](C)C[C@H]1O [Menthol, (-)-Menthol]"
  pEC50: 4.36

----------
# tested on: hTRPA1 (Homo sapiens, UniProt O75762)
# Sequence (O75762 whole entry): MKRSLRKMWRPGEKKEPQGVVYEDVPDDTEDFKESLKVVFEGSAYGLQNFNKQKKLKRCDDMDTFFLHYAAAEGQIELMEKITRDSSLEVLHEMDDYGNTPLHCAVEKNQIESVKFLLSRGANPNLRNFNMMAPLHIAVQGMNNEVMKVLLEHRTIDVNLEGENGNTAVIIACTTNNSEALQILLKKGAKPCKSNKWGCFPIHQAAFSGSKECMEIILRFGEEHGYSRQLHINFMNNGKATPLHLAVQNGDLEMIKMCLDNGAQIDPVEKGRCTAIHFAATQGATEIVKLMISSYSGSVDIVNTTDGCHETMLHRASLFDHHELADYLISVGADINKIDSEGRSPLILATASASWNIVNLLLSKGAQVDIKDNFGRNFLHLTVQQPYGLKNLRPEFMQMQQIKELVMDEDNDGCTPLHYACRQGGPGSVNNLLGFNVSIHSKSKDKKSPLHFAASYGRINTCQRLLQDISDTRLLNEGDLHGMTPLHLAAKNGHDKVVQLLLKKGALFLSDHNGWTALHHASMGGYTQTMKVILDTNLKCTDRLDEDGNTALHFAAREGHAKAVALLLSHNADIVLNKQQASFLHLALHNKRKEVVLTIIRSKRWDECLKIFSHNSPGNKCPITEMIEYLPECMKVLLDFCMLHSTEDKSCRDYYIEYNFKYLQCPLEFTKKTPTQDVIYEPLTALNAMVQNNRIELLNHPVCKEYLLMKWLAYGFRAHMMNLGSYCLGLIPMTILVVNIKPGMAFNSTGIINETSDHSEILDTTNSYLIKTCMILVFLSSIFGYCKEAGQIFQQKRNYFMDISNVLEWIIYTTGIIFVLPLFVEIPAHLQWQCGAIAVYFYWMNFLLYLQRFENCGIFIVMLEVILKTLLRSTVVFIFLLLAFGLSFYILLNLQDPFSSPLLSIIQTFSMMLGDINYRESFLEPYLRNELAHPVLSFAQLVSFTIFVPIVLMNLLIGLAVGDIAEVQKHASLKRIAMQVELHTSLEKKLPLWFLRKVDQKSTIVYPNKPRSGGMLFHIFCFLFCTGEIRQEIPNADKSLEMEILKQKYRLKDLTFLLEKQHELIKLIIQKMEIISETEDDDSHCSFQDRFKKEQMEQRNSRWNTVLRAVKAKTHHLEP
# assay protocol: FLIPR calcium assay, wild type hTRPA1
# Format: cell-based
# applied conditions: read-out: hTRPA1 IC50 (Inhibition)
pIC50: −log10 of the molar value.

- compound: "CC(=NO)/C(C)=C\\c1ccc(Cl)cc1 [AP18]"
  pIC50: 6.22

----------
# tested on: hTRPA1 (Homo sapiens)
# assay protocol: FLIPR calcium assay, wild type hTRPA1
# applied conditions: read-out: hTRPA1 EC50 (Activation)
quantity name: EC50 (µM)

- molecule: "CC(C)=CCC/C(C)=C/CC/C(C)=C/CSc1ccccc1C(=O)O [FTS, Farnesyl thiosalicylic acid]"
  tested on: "hTRPA1 (Homo sapiens)"
  quantity name: "EC50"
  recorded number: 7.3

----------
# tested on: UniProtKB O75762
# assay protocol: FLIPR calcium assay, wild type hTRPA1
# Format: cell-based

- molecule: "CC(C)c1ccc(NC(=O)Cn2cnc3c2c(=O)n(C)c(=O)n3C)cc1 [HC030031]"
  tested on: "UniProtKB O75762"
  IC50 [µM]: 12.9
